- Test system: SK-MEL-2 melanoma
- Test Protocol: NCI-60 one-dose screen, 48 h (100 = growth as untreated, 0 = no growth, -100 = all killed)
- Condition Context: 10 µM unless noted
Compounds without any hit were thinned out: in the full panel of roughly 83,000, 20% have a hit. Active and inactive are the calls of the source. Rule for the calls: active = growth percent below 10; inactive = the rest.
Parameter Measured: growth

Task: # query: growth of entry CC(O)c1cc[cH-]c1.[Fe+2].c1cc[cH-]c1 (stereo not drawn)
Result: 109% (inactive)

Task: Request: CC(C)OC(=O)[C@H](C)N[P@@](=O)(OC[C@@]1(C)O[C@@H](n2cc(F)c(N)nc2=O)C[C@@H]1O[P@](=O)(N[C@@H](C)C(=O)OC(C)C)Oc1ccccc1)Oc1ccccc1
Result: 122% (inactive)

Task: Request: C=C(C)[C@@H]1CC[C@]2(COC(=O)c3ccccc3C(=O)O)CC[C@]3(C)[C@H](CC[C@@H]4[C@@]5(C)CCCNC(C)(C)[C@@H]5CC[C@]43C)[C@@H]12
Result: 94.4% (inactive)

Task: Request: CC/C(=N\Nc1nc2ccccc2n1C)c1ccccn1
Result: 37.6% (inactive)

Task: Request: Nc1cc(N)c2nc(NCCc3ccc(Cl)c(Cl)c3)cnc2c1
Result: 54.9% (inactive)

Task: Request: COc1ccc(-c2nc(N)n(C(=S)Nc3ccccc3)n2)cc1
Result: 101% (inactive)

Task: Request: CCn1cnc(C[C@H](NC(=O)[C@@H](NC(=O)Nc2cc(C(F)(F)F)cc(C(F)(F)F)c2)C(C)(C)C)C(=O)OC)c1
Result: -91% [100 µM] (active)

Task: Request: CCCCCCC(C)N(CC(C)(C)O)C(=O)c1ccc([N+](=O)[O-])cc1 (stereo not drawn)
Result: 89.7% (inactive)
